Listed here: items and their measured Ratio activity (%).
# Test system: high HER2 tumor cell line SK-BR-3
# Assay method text: Effect of small molecules on cell proliferation (CellTiter-Glo)
# Format: cell-based
# Test context: SK-BR-3, 120 h; (IC50 of control sample Dxd / IC50 of test sample) x 100

- Compound: "CC[C@@]1(O)C(=O)OCc2c1cc1n(c2=O)Cc2c-1nc1cc(F)c(OC)c3c1c2C(NC(=O)C[C@H](C)O)CC3 (mixture of isomers)"
  Ratio activity (%): "0.495%"
- Compound: "CC[C@@]1(O)C(=O)OCc2c1cc1n(c2=O)Cc2c-1nc1cc(F)c(C)c3c1c2[C@@H](NC(=O)CO)CC3 [Dxd, reference compound]"
  Ratio activity (%): "1%"
- Compound: "CC[C@@]1(O)C(=O)OCc2c1cc1n(c2=O)Cc2c-1nc1cc(F)c(Br)c3c1c2[C@@H](NC(=O)C(O)C(F)(F)F)CC3 (mixture of isomers)"
  Ratio activity (%): "0.384%"
- Compound: "CC[C@@]1(O)C(=O)OCc2c1cc1n(c2=O)Cc2c-1nc1cc(F)c(Cl)c3c1c2[C@H](NC(=O)CO)CC3"
  Ratio activity (%): "1.059%"
- Compound: "CC[C@@]1(O)C(=O)OCc2c1cc1n(c2=O)Cc2c-1nc1cc(F)c(Cl)c3c1c2[C@@H](NC(=O)CCCO)CC3"
  Ratio activity (%): "0.49%"
- Compound: "CC[C@@]1(O)C(=O)OCc2c1cc1n(c2=O)Cc2c-1nc1cc(F)c(C)c3c1c2[C@@H](NC(=O)COCCO)CC3"
  Ratio activity (%): "0.703%"
- Compound: "CC[C@@]1(O)C(=O)OCc2c1cc1n(c2=O)Cc2c-1nc1cc(F)c(Cl)c3c1c2[C@H](NC(=O)[C@@H](C)O)CC3"
  Ratio activity (%): "0.277%"
- Compound: "CC[C@@]1(O)C(=O)OCc2c1cc1n(c2=O)Cc2c-1nc1cc(F)c(Cl)c3c1c2[C@H](NC(=O)[C@](C)(O)C(F)(F)F)CC3"
  Ratio activity (%): "0.846%"
- Compound: "CC[C@@]1(O)C(=O)OCc2c1cc1n(c2=O)Cc2c-1nc1cc(F)c(Cl)c3c1c2[C@@H](N)CC3"
  Ratio activity (%): "1.35%"
- Compound: "CC[C@@]1(O)C(=O)OCc2c1cc1n(c2=O)Cc2c-1nc1cc(F)c(Cl)c3c1c2[C@@H](NC(=O)[C@@H](O)C(F)(F)F)CC3"
  Ratio activity (%): "5.054%"
- Compound: "CC[C@@]1(O)C(=O)OCc2c1cc1n(c2=O)Cc2c-1nc1cc(F)c(Br)c3c1c2[C@H](NC(=O)C[C@@H](C)O)CC3"
  Ratio activity (%): "0.29%"

###

# Test system: high HER2 tumor cell line SK-BR-3
# Assay method text: Effect of small molecules on cell proliferation (CellTiter-Glo)
# Assay type: cell-based
# Test context: SK-BR-3, 120 h; (IC50 of control sample Dxd / IC50 of test sample) x 100
Could you mark each record 1 if its Ratio activity (%) falls strictly under 1%, and 0 if it equals or exceeds it?

- Molecule: "CC[C@@]1(O)C(=O)OCc2c1cc1n(c2=O)Cc2c-1nc1cc(F)c(Br)c3c1c2[C@H](NC(=O)C[C@H](C)O)CC3 [C600]"
  Assigned category: 1
- Molecule: "CC[C@@]1(O)C(=O)OCc2c1cc1n(c2=O)Cc2c-1nc1cc(F)c(Cl)c3c1c2[C@@H](NC(=O)[C@@H](O)C1CC1)CC3 [C622]"
  Assigned category: 1
- Molecule: "CC[C@@]1(O)C(=O)OCc2c1cc1n(c2=O)Cc2c-1nc1cc(F)c(Br)c3c1c2[C@@H](NC(=O)CO)CC3 [C637]"
  Assigned category: 0
- Molecule: "CC[C@@]1(O)C(=O)OCc2c1cc1n(c2=O)Cc2c-1nc1cc(F)c(Cl)c3c1c2[C@@H](NC(=O)[C@](C)(O)C(F)(F)F)CC3 [C704]"
  Assigned category: 0
- Molecule: "CC[C@@]1(O)C(=O)OCc2c1cc1n(c2=O)Cc2c-1nc1cc(F)c(Br)c3c1c2[C@@H](NC(=O)C[C@H](C)O)CC3 [C601]"
  Assigned category: 0
- Molecule: "CC[C@@]1(O)C(=O)OCc2c1cc1n(c2=O)Cc2c-1nc1cc(F)c(OC)c3c1c2C(NC(=O)CO)CC3 (mixture of isomers) [C664]"
  Assigned category: 1
- Molecule: "CC[C@@]1(O)C(=O)OCc2c1cc1n(c2=O)Cc2c-1nc1cc(F)c(OC)c3c1c2C(NC(=O)[C@@H](C)O)CC3 (stereo partly shown) [C668]"
  Assigned category: 1
- Molecule: "CC[C@@]1(O)C(=O)OCc2c1cc1n(c2=O)Cc2c-1nc1cc(F)c(C)c3c1c2[C@@H](NC(=O)[C@@](C)(O)C(F)(F)F)CC3 [C688]"
  Assigned category: 1
- Molecule: "CC[C@@]1(O)C(=O)OCc2c1cc1n(c2=O)Cc2c-1nc1cc(F)c(C)c3c1c2[C@@H](NC(=O)C1(OCCO)CC1)CC3 [C565]"
  Assigned category: 0
- Molecule: "CC[C@@]1(O)C(=O)OCc2c1cc1n(c2=O)Cc2c-1nc1cc(F)c(Br)c3c1c2C(NC(=O)[C@H](C)O)CC3 (mixture of isomers) [C595]"
  Assigned category: 1
- Molecule: "CC[C@@]1(O)C(=O)OCc2c1cc1n(c2=O)Cc2c-1nc1cc(F)c(C)c3c1c2[C@@H](NC(=O)[C@H](OCCO)C1CC1)CC3 [C563]"
  Assigned category: 0

###

Below, each entry is listed with its recorded Ratio activity (%).
# Tested on: high HER2 tumor cell line SK-BR-3
# Assay method text: Effect of small molecules on cell proliferation (CellTiter-Glo)
# Type: cell-based
# Test context: SK-BR-3, 120 h; (IC50 of control sample Dxd / IC50 of test sample) x 100

- Compound: "CC[C@@]1(O)C(=O)OCc2c1cc1n(c2=O)Cc2c-1nc1cc(F)c(Br)c3c1c2[C@@H](NC(=O)C[C@@H](C)O)CC3"
  Ratio activity (%): 1.439
- Compound: "CC[C@@]1(O)C(=O)OCc2c1cc1n(c2=O)Cc2c-1nc1cc(F)c(Cl)c3c1c2C(NC(=O)[C@H](O)C1CC1)CC3 (mixture of isomers)"
  Ratio activity (%): 0.916
- Compound: "CC[C@@]1(O)C(=O)OCc2c1cc1n(c2=O)Cc2c-1nc1cc(F)c(OC)c3c1c2C(NC(=O)C(O)C(F)(F)F)CC3 (stereo partly drawn)"
  Ratio activity (%): 0.365
- Compound: "CC[C@@]1(O)C(=O)OCc2c1cc1n(c2=O)Cc2c-1nc1cc(F)c(Cl)c3c1c2[C@@H](NC(=O)COCCO)CC3"
  Ratio activity (%): 0.259
- Compound: "CC[C@@]1(O)C(=O)OCc2c1cc1n(c2=O)Cc2c-1nc1cc(F)c(Cl)c3c1c2[C@H](NC(=O)CCCO)CC3"
  Ratio activity (%): 0.546
- Compound: "CC[C@@]1(O)C(=O)OCc2c1cc1n(c2=O)Cc2c-1nc1cc(F)c(Br)c3c1c2[C@H](NC(=O)C(O)C(F)(F)F)CC3 (mixture of isomers)"
  Ratio activity (%): 0.434

###

Some compounds, each annotated with its measured Ratio activity (%).
# Tested on: high HER2 tumor cell line SK-BR-3
# Assay method text: Effect of small molecules on cell proliferation (CellTiter-Glo)
# Assay type: cell-based
# Test context: SK-BR-3, 120 h; (IC50 of control sample Dxd / IC50 of test sample) x 100
# Method: Study Purpose: In this experiment, cell viability was detected using CellTiter-Glo to evaluate the effects of the small molecule compounds on the proliferation of a high HER2 tumor cell line SK-BR-3, and to analyze the effects of the small molecule compounds on the proliferation of tumor cells. […] GraphPad software was used to process the data. […] If necessary, the relative biological activity of sample A, i.e., ratio activity was calculated. […]
Observed property: Ratio activity (%)

- Compound: "CC[C@@]1(O)C(=O)OCc2c1cc1n(c2=O)Cc2c-1nc1cc(F)c(Br)c3c1c2[C@H](NC(=O)CO)CC3"
  Recorded number: 0.682
- Compound: "CC[C@@]1(O)C(=O)OCc2c1cc1n(c2=O)Cc2c-1nc1cc(F)c(Br)c3c1c2[C@H](NC(=O)[C@@H](C)O)CC3"
  Recorded number: 0.911
- Compound: "CC[C@@]1(O)C(=O)OCc2c1cc1n(c2=O)Cc2c-1nc1cc(F)c(Cl)c3c1c2[C@@H](NC(=O)[C@H](O)C(F)(F)F)CC3"
  Recorded number: 0.54
- Compound: "CC[C@@]1(O)C(=O)OCc2c1cc1n(c2=O)Cc2c-1nc1cc(F)c(Br)c3c1c2[C@@H](NC(=O)[C@@H](C)O)CC3"
  Recorded number: 0.684
- Compound: "CC[C@@]1(O)C(=O)OCc2c1cc1n(c2=O)Cc2c-1nc1cc(F)c(Cl)c3c1c2[C@@H](NC(=O)[C@@H](C)O)CC3"
  Recorded number: 1.008
- Compound: "CC[C@@]1(O)C(=O)OCc2c1cc1n(c2=O)Cc2c-1nc1cc(F)c(Cl)c3c1c2C(NC(=O)C[C@H](C)O)CC3 (mixture of isomers)"
  Recorded number: 0.783
- Compound: "CC[C@@]1(O)C(=O)OCc2c1cc1n(c2=O)Cc2c-1nc1cc(F)c(OC)c3c1c2C(NC(=O)C1(O)CC1)CC3 (mixture of isomers)"
  Recorded number: 0.658
- Compound: "CC[C@@]1(O)C(=O)OCc2c1cc1n(c2=O)Cc2c-1nc1cc(F)c(C)c3c1c2[C@@H](NC(=O)[C@](C)(O)C(F)(F)F)CC3"
  Recorded number: 1.835
- Compound: "CC[C@@]1(O)C(=O)OCc2c1cc1n(c2=O)Cc2c-1nc1cc(F)c(Cl)c3c1c2[C@H](NC(=O)COCCO)CC3"
  Recorded number: 0.285
- Compound: "CC[C@@]1(O)C(=O)OCc2c1cc1n(c2=O)Cc2c-1nc1cc(F)c(Cl)c3c1c2[C@H](NC(=O)C1(O)CC1)CC3"
  Recorded number: 0.568
- Compound: "CC[C@@]1(O)C(=O)OCc2c1cc1n(c2=O)Cc2c-1nc1cc(F)c(Cl)c3c1c2[C@@H](NC(=O)C1(O)CC1)CC3"
  Recorded number: 2.514
- Compound: "CC[C@@]1(O)C(=O)OCc2c1cc1n(c2=O)Cc2c-1nc1cc(F)c(Cl)c3c1c2[C@H](N)CC3"
  Recorded number: 0.82
- Compound: "CC[C@@]1(O)C(=O)OCc2c1cc1n(c2=O)Cc2c-1nc1cc(F)c(Cl)c3c1c2[C@@H](NC(=O)CO)CC3"
  Recorded number: 2.272
- Compound: "CC[C@@]1(O)C(=O)OCc2c1cc1n(c2=O)Cc2c-1nc1cc(F)c(C)c3c1c2[C@@H](NC(=O)C[C@H](C)O)CC3"
  Recorded number: 1.325
